Task for the reader: assign each of the following compounds its reported log10 of MIC.
system: Mycobacterium tuberculosis; test: Tested for antibacterial activity against Mycobacterium tuberculosis H37Rv isonicotinic acid hydrazide-resistant strain; type: functional
Heads up, the numbers here are log10 of MIC in µg/mL units.

[ask] Bench note: what log10 of MIC did "CCCCCCCCCC(=O)OCCCNC(=O)c1ccccc1SSc1ccccc1C(=O)NCCCOC(=O)CCCCCCCCC" show?
[reply] -0.41

[ask] Which log10 of MIC reading was recorded for the compound "CCCCCCCCCCCC(=O)OCCNC(=O)c1ccccc1SSc1ccccc1C(=O)NCCOC(=O)CCCCCCCCCCC" ?
[reply] 0.50

[ask] Data request, read-out log10 of MIC, for "O=C(Nc1ccc(Br)c2ccccc12)c1ccccc1SSc1ccccc1C(=O)Nc1ccc(Br)c2ccccc12"
[reply] 1.10

[ask] Query (compound): "NC(=O)c1ccccc1SSc1ccccc1C(N)=O" ; field requested: log10 of MIC
[reply] 0.80

[ask] Given the entry CC[C@@H](CO)NCCN[C@@H](CC)CO [ETHAMBUTOL] , report its measured log10 of MIC.
[reply] -0.11

[ask] Given the entry "O=c1c2ccccc2sn1CO" , report its measured log10 of MIC.
[reply] 0.80

[ask] Need log10 of MIC of "O=C(NCc1ccco1)c1ccccc1SSc1ccccc1C(=O)NCc1ccco1" , thanks.
[reply] 1.10

[ask] Return reported log10 of MIC; argument: "O=C(Nc1cccc2cccnc12)c1ccccc1SSc1ccccc1C(=O)Nc1cccc2cccnc12"
[reply] 1.10

[ask] What does the data say about its log10 of MIC? Entry: "O=C(Nc1ccc(S(=O)(=O)Nc2nc3ccccc3s2)cc1)c1ccccc1SSc1ccccc1C(=O)Nc1ccc(S(=O)(=O)Nc2nc3ccccc3s2)cc1"
[reply] 2.00

[ask] Form field: reported log10 of MIC of "O=C(Nc1cccc(C(F)(F)F)c1)c1ccccc1SSc1ccccc1C(=O)Nc1cccc(C(F)(F)F)c1"
[reply] 0.50

[ask] # query: log10 of MIC of entry CCC(CO)NC(=O)c1ccccc1SSc1ccccc1C(=O)NC(CC)CO (stereo unspecified)
[reply] 1.10

[ask] Fill in: log10 of MIC of CCC(O)CNC(=O)c1ccccc1SSc1ccccc1C(=O)NCC(O)CC (stereo unspecified) is ___
[reply] 1.10

[ask] Recorded log10 of MIC for NC[C@H]1O[C@H](O[C@H]2[C@H](O)[C@@H](O[C@H]3O[C@H](CO)[C@@H](O)[C@H](N)[C@H]3O)[C@H](N)C[C@@H]2N)[C@H](O)[C@@H](O)[C@@H]1O [KANAMYCIN] , please?
[reply] 0.80

[ask] Which log10 of MIC reading was recorded for the compound "O=C(Nc1cccc2ccc(O)cc12)c1ccccc1SSc1ccccc1C(=O)Nc1cccc2ccc(O)cc12" ?
[reply] 1.10
